# MEASUREMENT_DESCRIPTION: qHTS assay for small molecules that induce genotoxicity in human embryonic kidney cells expressing luciferase-tagged ATAD5 (AID 651632); note: nearly all actives have a fitted effect of over 15% in size
# TEST_PARAMETERS: HEK293T ATAD5-luciferase induction, 16 h; series mostly up to 83.3 µM
Results filed as inconclusive are left out. The source made the active and inactive calls. Calls come from the whole dose curve; as a rule, active = well fitted activation curve with a large enough effect in the repeat runs; inconclusive = weak or mixed curves; inactive = no such curve, though single readings can be large or run the other way.
PARAMETER_MEASURED: outcome

The examples below pair each entry with its known result.
- COMPOUND: "CNC(=O)Oc1c(C(C)(C)C)cc(C)cc1C(C)(C)C"
  MEASURED_RESULT: "inactive"
- COMPOUND: "CCCCC(=O)Cl"
  MEASURED_RESULT: "inactive"
- COMPOUND: "NC(=O)c1cc([N+](=O)[O-])cc([N+](=O)[O-])c1"
  MEASURED_RESULT: "inactive"
- COMPOUND: "N#CC(Cl)(Cl)Cl"
  MEASURED_RESULT: "inactive"
- COMPOUND: "ClCC(Cl)(Cl)Cl"
  MEASURED_RESULT: "inactive"

Turning to the following compound.
Query block: # query: outcome of entry COC(=O)C(c1ccccc1)C1CCCCN1 (stereo not drawn)
Result block: inactive

###

# MEASUREMENT_DESCRIPTION: qHTS assay to identify small molecule antagonists of the thyroid receptor (TR) signaling pathway (AID 743065); note: nearly all actives have a fitted effect of over 55% in size
# TEST_PARAMETERS: GH3.TRE-Luc, T3-stimulated luciferase inhibition, 23.5 h; series mostly up to 70.3 µM
Results filed as inconclusive are left out. Activity calls are given as the source filed them. Calls come from the whole dose curve; as a rule, active = well fitted inhibition curve with a large enough effect in the repeat runs; inconclusive = weak or mixed curves; inactive = no such curve, though single readings can be large or run the other way.
Pick from True for active, False for inactive when you respond.

Query block: Record lookup: outcome of this test for `CN1CCN(C(=O)O[C@H]2c3nccnc3C(=O)N2c2ccc(Cl)cn2)CC1` ?
Result block: False

Query block: Record lookup: outcome of this test for `CCN(Cc1ccc(Cl)nc1)/C(=C/[N+](=O)[O-])NC` ?
Result block: False

Query block: Record lookup: outcome of this test for `Cc1cnc[nH]1` ?
Result block: False

Query block: Record lookup: outcome of this test for `ClCCOCOCCCl` ?
Result block: False

Query block: Record lookup: outcome of this test for `CC1=C(C(=O)Nc2ccccc2)S(=O)(=O)CCO1` ?
Result block: True

Query block: Record lookup: outcome of this test for `CCS(=O)(=O)C(C)(C)S(=O)(=O)CC` ?
Result block: False

Query block: Record lookup: outcome of this test for CCC(Cl)[N+](=O)[O-] (stereo not given) ?
Result block: False

Query block: Record lookup: outcome of this test for `CCOP(=S)(OCC)Oc1nc(Cl)n(C(C)C)n1` ?
Result block: False

Query block: Record lookup: outcome of this test for `OCCBr` ?
Result block: False

Query block: Record lookup: outcome of this test for `CCOP(=O)(OCC)OP(=O)(OCC)OCC` ?
Result block: False

Query block: Record lookup: outcome of this test for `N#Cc1c(Cl)cccc1Cl` ?
Result block: False

Query block: Record lookup: outcome of this test for `CC(C)CP(=S)(S)CC(C)C` ?
Result block: False

Query block: Record lookup: outcome of this test for `[O]=[Cd]` ?
Result block: False

Query block: Record lookup: outcome of this test for `CCCCOP(=O)(O)OCCCC` ?
Result block: False

Query block: Record lookup: outcome of this test for `CN(C)CCc1ccc(O)cc1` ?
Result block: False

Query block: Record lookup: outcome of this test for `CCC(=O)c1ccccc1` ?
Result block: False

Query block: Record lookup: outcome of this test for `COc1ncc(F)c2nc(S(=O)(=O)Nc3c(F)cccc3F)nn12` ?
Result block: False

Query block: Record lookup: outcome of this test for `CCNc1nc(NC(C)C)nc(OC)n1` ?
Result block: False

Query block: Record lookup: outcome of this test for `O=S(=O)(O)C(F)(F)C(F)(F)C(F)(F)C(F)(F)C(F)(F)C(F)(F)F` ?
Result block: False

Query block: Record lookup: outcome of this test for C(CCOCC1CO1)COCC1CO1 (stereo not given) ?
Result block: True

Query block: Record lookup: outcome of this test for `NC(=O)c1cc([N+](=O)[O-])cc([N+](=O)[O-])c1` ?
Result block: False

Query block: Record lookup: outcome of this test for `COCC(=O)N(c1c(C)cccc1C)N1CCOC1=O` ?
Result block: False

Query block: Record lookup: outcome of this test for `CCOP(=S)(OCC)SCSc1ccc(Cl)cc1` ?
Result block: False

Query block: Record lookup: outcome of this test for `CCCCCCI` ?
Result block: False

Query block: Record lookup: outcome of this test for CC(C)(C)NCC(O)c1cc(Cl)c(N)c(Cl)c1 (stereo not given) ?
Result block: False

Query block: Record lookup: outcome of this test for `C1CCC(C2CCCCC2)CC1` ?
Result block: False

Query block: Record lookup: outcome of this test for CN1CCC(O)(c2ccc(F)cc2)C(C(=O)c2ccc(F)cc2)C1 (stereo not given) ?
Result block: True

Query block: Record lookup: outcome of this test for `CCCSC(=O)N(CCC)CCC` ?
Result block: False

Query block: Record lookup: outcome of this test for `CCCCOC(=O)[C@@H](C)Oc1ccc(Oc2ccc(C#N)cc2F)cc1` ?
Result block: False

Query block: Record lookup: outcome of this test for `NC(=S)C(N)=S` ?
Result block: False

Query block: Record lookup: outcome of this test for `c1cc2c(c(N3CCNCC3)c1)OCCO2` ?
Result block: False

Query block: Record lookup: outcome of this test for `C[N+](C)=CCl` ?
Result block: False

Query block: Record lookup: outcome of this test for `COP(=S)(OC)Oc1ccc(S(N)(=O)=O)cc1` ?
Result block: False

Query block: Record lookup: outcome of this test for `CCCCc1ccc(O)cc1` ?
Result block: False

Query block: Record lookup: outcome of this test for CCC(C)n1c(=O)[nH]c(C)c(Br)c1=O (stereo not given) ?
Result block: False

Query block: Record lookup: outcome of this test for `CC(=O)Nc1cc([As](=O)(O)O)ccc1O` ?
Result block: False

Query block: Record lookup: outcome of this test for `Cc1cc(C)nc(Nc2ccccc2)n1` ?
Result block: False

Query block: Record lookup: outcome of this test for `CNNC` ?
Result block: False

Query block: Record lookup: outcome of this test for `Oc1c(Cl)cccc1Cl` ?
Result block: False

Query block: Record lookup: outcome of this test for N#CC(O)c1ccccc1 (stereo not given) ?
Result block: False

Query block: Record lookup: outcome of this test for `CN(N=O)C(N)=O` ?
Result block: False

Query block: Record lookup: outcome of this test for O=CNC(N1CCN(C(NC=O)C(Cl)(Cl)Cl)CC1)C(Cl)(Cl)Cl (stereo not given) ?
Result block: False

Query block: Record lookup: outcome of this test for C=CC1CC=CCC1 (stereo not given) ?
Result block: False

Query block: Record lookup: outcome of this test for `Nc1cc2c3c(c1)C(c1ccccc1)=N[C@@H](NC(=O)c1cccnc1)C(=O)N3CC2` ?
Result block: False

Query block: Record lookup: outcome of this test for CCC/C(=N\OCC)C1=C(O)CC(CC(C)SCC)CC1=O (stereo not given) ?
Result block: False

Query block: Record lookup: outcome of this test for `ClC(Cl)C(Cl)Cl` ?
Result block: False

Query block: Record lookup: outcome of this test for `Cc1cccc(C#N)c1` ?
Result block: False

Query block: Record lookup: outcome of this test for `CCOC(=O)NC(=S)Nc1ccccc1NC(=S)NC(=O)OCC` ?
Result block: True

Query block: Record lookup: outcome of this test for `CCCSC(=O)Cl` ?
Result block: False

Query block: Record lookup: outcome of this test for `O=C1OC(c2ccc(O)c(S(=O)(=O)O)c2)(c2ccc(O)c(S(=O)(=O)O)c2)c2c(Br)c(Br)c(Br)c(Br)c21` ?
Result block: False

Query block: Record lookup: outcome of this test for COP(N)(=S)Oc1ccccc1C(=O)OC(C)C (stereo not given) ?
Result block: False

Query block: Record lookup: outcome of this test for `CCN(CC)c1nc(C)cc(OP(=S)(OC)OC)n1` ?
Result block: True

Query block: Record lookup: outcome of this test for `CC(=O)C(Cl)Cl` ?
Result block: False

Query block: Record lookup: outcome of this test for `CC(Cl)(Cl)[N+](=O)[O-]` ?
Result block: False

Query block: Record lookup: outcome of this test for `CCCCc1c(C)nc(NCC)[nH]c1=O` ?
Result block: False

Query block: Record lookup: outcome of this test for `[As]#[In]` ?
Result block: False

Query block: Record lookup: outcome of this test for `[Cl][Sn]([Cl])([Cl])[Cl]` ?
Result block: False

Query block: Record lookup: outcome of this test for `CCOP(=S)(OCC)Oc1cc(-c2ccccc2)on1` ?
Result block: False

Query block: Record lookup: outcome of this test for Cc1coc2c1CCC(C)C2 (stereo not given) ?
Result block: False

Query block: Record lookup: outcome of this test for `O=C(Cc1ccccc1)OCc1ccccc1` ?
Result block: False
